meta.source: ChEMBL document CHEMBL2331321

Collected IC50 values appear next to each entry.
biological target: Androgen receptor (Homo sapiens)
Please provide the amount together with its unit, number first.

>>> df
                                   compound     val
0  CNC(=O)c1ccc([C@]2(O)CCN(c3ccc(C#N)c(OC)c3)[C@H]2C)cn1   62 nM
1  CNC(=O)c1ccc([C@]2(O)CCN(c3ccc(C#N)c(Cl)c3)[C@H]2C)cc1  8.6 nM
2  C[C@@H]1N(c2ccc(C#N)c(Cl)c2)CC[C@@]1(O)c1ccc(F)cc1   17 nM
3  N#Cc1ccc(N2CCC(O)(c3ccccc3)C2)cc1Cl (racemic)  380 nM

Proceeding to the next compound to report its IC50.
Query: Name the value of IC50 reported for CNC(=O)c1ccc([C@@]2(O)CCN(c3ccc(C#N)c(Cl)c3)[C@@H]2C)cn1 when tested on Androgen receptor (Homo sapiens).
Reply: 6400 nM

---

pEC50: −log10 of the molar value.
Androgen receptor (Homo sapiens): recorded pEC50 for assorted compounds

Please review the following examples before continuing.
>>> print(df.to_string())
                                   compound                      study_target  observed_property     val
0  N#Cc1ccc(N2CCC(O)(c3ccc(F)cc3)C2)cc1Cl (racemic)  Androgen receptor (Homo sapiens)              pEC50  < 5.00
1  N#Cc1ccc(N2CCC(O)C2)cc1Cl (stereo unspecified)  Androgen receptor (Homo sapiens)              pEC50    5.33
2  C[C@@H]1N(c2ccc(C#N)c(Cl)c2)CC[C@@]1(O)c1ccc(F)cc1  Androgen receptor (Homo sapiens)              pEC50  < 5.00
3  N#Cc1ccc(N2CCC(O)(Cc3ccccc3)C2)cc1Cl (stereo unspecified)  Androgen receptor (Homo sapiens)              pEC50  < 5.00
4  CNC(=O)c1ccc([C@]2(O)CCN(c3ccc(C#N)c(Cl)c3)[C@H]2C)cn1  Androgen receptor (Homo sapiens)              pEC50  < 5.00
5  N#Cc1ccc(N2CCC(O)(c3ccccc3)C2)cc1Cl (racemic)  Androgen receptor (Homo sapiens)              pEC50  < 5.00
6  CNC(=O)c1ccc([C@]2(O)CCN(c3ccc(C#N)c(Cl)c3)[C@H]2C)cc1  Androgen receptor (Homo sapiens)              pEC50  < 5.00
7  CNC(=O)c1ccc([C@@]2(O)CCN(c3ccc(C#N)c(Cl)c3)[C@@H]2C)cn1  Androgen receptor (Homo sapiens)              pEC50  < 5.00
8  CNC(=O)c1ccc([C@]2(O)CCN(c3ccc(C#N)c(Cl)c3)[C@H]2C)nc1  Androgen receptor (Homo sapiens)              pEC50  < 5.00
9  C[C@@H]1N(c2ccc(C#N)c(Cl)c2)CC[C@@]1(O)c1ccc(C(N)=O)cc1  Androgen receptor (Homo sapiens)              pEC50  < 5.00

Query: GET pEC50 | system: Androgen receptor (Homo sapiens) | item: C[C@@H]1N(c2ccc(C#N)c(Cl)c2)CC[C@@]1(O)c1ccc(C(=O)N(C)C)nc1
Reply: < 5.00

---

Target: Androgen receptor (Homo sapiens)
Sequence (P10275 whole entry): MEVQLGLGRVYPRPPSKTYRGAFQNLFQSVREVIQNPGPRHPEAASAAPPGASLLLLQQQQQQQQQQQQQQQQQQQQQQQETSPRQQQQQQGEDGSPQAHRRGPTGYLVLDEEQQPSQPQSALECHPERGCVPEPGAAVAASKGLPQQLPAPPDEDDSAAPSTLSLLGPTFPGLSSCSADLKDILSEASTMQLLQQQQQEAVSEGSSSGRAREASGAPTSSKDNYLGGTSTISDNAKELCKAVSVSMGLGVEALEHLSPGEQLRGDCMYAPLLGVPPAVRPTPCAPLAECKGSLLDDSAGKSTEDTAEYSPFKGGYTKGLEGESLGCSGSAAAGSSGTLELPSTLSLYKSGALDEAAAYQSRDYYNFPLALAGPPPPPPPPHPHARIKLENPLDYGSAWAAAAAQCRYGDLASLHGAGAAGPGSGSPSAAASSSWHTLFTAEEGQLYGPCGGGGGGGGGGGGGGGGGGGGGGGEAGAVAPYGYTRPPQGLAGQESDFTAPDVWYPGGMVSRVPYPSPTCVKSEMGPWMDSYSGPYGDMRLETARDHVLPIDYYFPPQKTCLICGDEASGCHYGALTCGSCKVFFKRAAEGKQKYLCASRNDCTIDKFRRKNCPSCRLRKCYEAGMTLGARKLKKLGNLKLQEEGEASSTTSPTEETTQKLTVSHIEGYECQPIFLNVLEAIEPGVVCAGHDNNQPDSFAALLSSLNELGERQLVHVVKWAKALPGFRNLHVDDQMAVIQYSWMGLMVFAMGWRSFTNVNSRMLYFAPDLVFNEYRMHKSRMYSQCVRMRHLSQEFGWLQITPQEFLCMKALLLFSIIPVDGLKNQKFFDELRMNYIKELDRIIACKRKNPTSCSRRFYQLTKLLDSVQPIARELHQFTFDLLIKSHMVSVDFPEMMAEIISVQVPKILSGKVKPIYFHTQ
IC50 values for the molecules below.
The figure you give is taken to be in nM; do not add the unit.

Below, 5 molecules whose answers are already recorded.
>>> print(df.to_string())
                                   molecule                      study_target  observed_property  val
0  N#Cc1ccc(N2CCC(O)C2)cc1Cl (stereo not given)  Androgen receptor (Homo sapiens)               IC50   82
1  N#Cc1ccc(N2CCC(O)(c3ccc(F)cc3)C2)cc1Cl (racemic)  Androgen receptor (Homo sapiens)               IC50   68
2  CNC(=O)c1ccc([C@]2(O)CCN(c3ccc(C#N)c(Cl)c3)[C@H]2C)cn1  Androgen receptor (Homo sapiens)               IC50   25
3  CNC(=O)c1ccc([C@]2(O)CCN(c3ccc(C#N)c(Cl)c3)[C@H]2C)nc1  Androgen receptor (Homo sapiens)               IC50  120
4  C[C@@H]1N(c2ccc(C#N)c(Cl)c2)CC[C@@]1(O)c1ccc(N2CCCC2=O)nc1  Androgen receptor (Homo sapiens)               IC50   11

Query: Name the value of IC50 reported for C[C@@H]1N(c2ccc(C#N)c(Cl)c2)CC[C@@]1(O)c1ccc(C(=O)N(C)C)nc1 when tested on Androgen receptor (Homo sapiens).
Reply: 1700

Query: Answer briefly: IC50 recorded on Androgen receptor (Homo sapiens) for N#Cc1ccc(N2CCC(O)(Cc3ccccc3)C2)cc1Cl (stereo not given)
Reply: 1000

Query: Answer with IC50 of CNC(=O)c1ccc([C@]2(O)CCN(c3ccc(C#N)c(F)c3)[C@H]2C)cn1 measured for Androgen receptor (Homo sapiens).
Reply: 290

Query: Enter measured IC50, system Androgen receptor (Homo sapiens), for the molecule shown: C[C@@H]1N(c2ccc(C#N)c(Cl)c2)CC[C@@]1(O)c1ccc(C(N)=O)cc1
Reply: 17

Query: System Androgen receptor (Homo sapiens). Read-out IC50. Item CNC(=O)c1ccc([C@]2(O)CCN(c3ccc(C#N)cc3)[C@H]2C)cn1 . Report value.
Reply: 400
